Answer each item with its documented normalised viability.
- System: DU-4475
- PROTOCOL_TEXT: normalised viability (% of control), CellTiter-Blue; higher = more viable cells (about 100 = DMSO control)
- CONDITION_INFO: 3 nM; incubation time: 72 h
Entry rule: numbers only, all in %.

Name the reported normalised viability value associated with the compound CCC1(c2ccc(N)cc2)CCC(=O)NC1=O (stereo unspecified) [Aminoglutethimide]
107

Name the reported normalised viability value associated with the compound Cn1c(Nc2ccc(C(F)(F)F)cc2)nc2cc(Oc3ccnc(-c4ncc(C(F)(F)F)[nH]4)c3)ccc21
95.6

Name the reported normalised viability value associated with the compound CN(C)/N=N/c1[nH]cnc1C(N)=O
90.4

Name the reported normalised viability value associated with the compound NC(=O)Nc1cc(-c2cccc(F)c2)sc1C(=O)N[C@H]1CCCNC1
109

Name the reported normalised viability value associated with the compound C[C@@H](Oc1cc(-c2cnn(C3CCNCC3)c2)cnc1N)c1c(Cl)ccc(F)c1Cl
94.9

Name the reported normalised viability value associated with the compound Cc1ccc(C(=O)Nc2ccc(CN3CCN(C)CC3)c(C(F)(F)F)c2)cc1C#Cc1cnc2cccnn12
91.7

Name the reported normalised viability value associated with the compound NCC(=O)CCC(=O)O
104

Name the reported normalised viability value associated with the compound COc1cc([C@@H]2c3cc4c(cc3[C@@H](O[C@@H]3O[C@@H]5CO[C@@H](C)O[C@H]5[C@H](O)[C@H]3O)[C@H]3COC(=O)[C@H]23)OCO4)cc(OC)c1O [Etoposide]
108

Name the reported normalised viability value associated with the compound Cc1ccc(-n2nc(C(C)(C)C)cc2NC(=O)Nc2ccc(OCCN3CCOCC3)c3ccccc23)cc1
123

Name the reported normalised viability value associated with the compound COc1cc2nccc(Oc3ccc(NC(=O)C4(C(=O)Nc5ccc(F)cc5)CC4)cc3)c2cc1OC [Cabozantinib]
78

Name the reported normalised viability value associated with the compound CC(=O)Nc1ccc(C(=O)Nc2ccccc2N)cc1
81

====

- Tested on: CAL-85-1
- PROTOCOL_TEXT: normalised response (% of control), CellTiter-Glo; higher = more viable cells (100 = DMSO, 0 = benzethonium chloride kill control)
- CONDITION_INFO: incubation time: 72 h
Answer each item with its documented normalised response.
Entry rule: numbers only, all in %.

Name the reported normalised response value associated with the compound CC(C)Cn1cnc2c(N)nc3ccccc3c21 [Imiquimod] (25 nM)
99.9

Name the reported normalised response value associated with the compound CCC(C)(C)C(=O)O[C@H]1C[C@@H](C)C=C2C=C[C@H](C)[C@H](CC[C@@H]3C[C@@H](O)CC(=O)O3)[C@H]21 [Simvastatin] (100 nM)
98.9

Name the reported normalised response value associated with the compound O=C(CCCCCCC(=O)Nc1ccc([C@H]2O[C@@H](CSc3nc(-c4ccccc4)c(-c4ccccc4)o3)C[C@@H](c3ccc(CO)cc3)O2)cc1)NO [Tubacin] (100 nM)
97.2

Name the reported normalised response value associated with the compound Cc1ccc(C(=O)Nc2ccc(CN3CCN(C)CC3)c(C(F)(F)F)c2)cc1C#Cc1cnc2cccnn12 [Ponatinib] (10 nM)
99.5

Name the reported normalised response value associated with the compound Cc1ccc(-n2nc(C(C)(C)C)cc2NC(=O)Nc2ccc(OCCN3CCOCC3)c3ccccc23)cc1 [Doramapimod] (100 nM)
92.4

Name the reported normalised response value associated with the compound Clc1ccc(Nc2nnc(Cc3ccncc3)c3ccccc23)cc1 [Vatalanib] (100 nM)
103

Name the reported normalised response value associated with the compound C[C@]12CC[C@@H]3c4ccc(O)cc4C[C@@H](CCCCCCCCC[S+]([O-])CCCC(F)(F)C(F)(F)F)[C@H]3[C@@H]1CC[C@@H]2O (some centres not stated) [Fulvestrant] (10 nM)
97.9
